Biological target: Human immunodeficiency virus type 1 reverse transcriptase (Human immunodeficiency virus 1, UniProt Q72547)
pKi: −log10 of the molar value.
Label yes when pKi >= 7; otherwise no.

Solved cases (5 shown):
Cc1c(Cc2c(F)cccc2F)nc(N2CCN(C)CC2)[nH]c1=O	no
CCCNc1nc(C(C)c2c(F)cccc2F)c(C)c(=O)[nH]1 (stereo not drawn)	yes
CN1CCN(c2nc(Cc3c(F)cccc3F)cc(=O)[nH]2)CC1	no
Cc1c(Cc2c(F)cccc2F)nc(N2CCOCC2)[nH]c1=O	yes
Cc1c(C(C)c2c(F)cccc2F)nc(N2CCOCC2)[nH]c1=O (stereo not drawn)	yes

Req: Does pKi meet or surpass 7 for Cc1c(C(C)c2c(F)cccc2F)nc(N(C)C(C)C)[nH]c1=O (stereo not drawn) ?
Resp: yes

Req: Does pKi meet or surpass 7 for `Cc1c(Cc2c(F)cccc2F)nc(N2CCN(c3ccccn3)CC2)[nH]c1=O` ?
Resp: yes
